tested on: OATP1B3; construct: expressed in transfected cells; host or cells: MDCK-II; test: OATP1B3 inhibition study in MDCK cells; type: in vitro ADME; conditions: MDCK-II cell monolayer expressing OATP1B3, probe [3H]-cholecystokinin octapeptide (CCK-8); rifampicin 100 μM, 2 μM CCK-8; read-out: % inhibition of OATP1B3-mediated transport of CCK-8, reference inhibitor
Parameter measured: inhibition at 5 min, 100 μM
Units required after the number.

# query: inhibition at 5 min, 100 μM of entry CO[C@H]1/C=C/O[C@@]2(C)Oc3c(C)c(O)c4c(O)c(c(/C=N/N5CCN(C)CC5)c(O)c4c3C2=O)NC(=O)/C(C)=C\C=C\[C@H](C)[C@H](O)[C@@H](C)[C@@H](O)[C@@H](C)[C@H](OC(C)=O)[C@@H]1C [rifampicin, reference compound]
99%

Reference source for all entries: paper PMC5602538
